- experiment.description: physchem
- experimental.parameters: water, thermodynamic from solid
measured.attribute: solubility (µg/mL)
Report as a plain number; the unit µg/mL is understood.

[in] Name the reported solubility value associated with the compound O=C1OC2(c3cc(Cl)c(O)cc3Oc3cc(O)c(Cl)cc32)c2ccccc21 [Dichlorofluorescein, dichlorofluorescein]
[out] 10
